target: EGFR extracellular domain, Fc fusion (EGFR-Fc) (UniProt P00533 25-644); test: ELISA-type plate assay; EGFR-Fc on protein A 96-well plates, biotinylated aptamer, streptavidin-AP chemiluminescence, n = 3; buffer, salt, pH and temperature not in the material; details: protein: recombinant; tags: Fc; chain copies: 2; label: 5'-biotin; single strand; 5' and 3' ends base pair, three loops (predicted)
Readout type: pKd
Answers are plain numbers, as −log10 of the molar value.

Q) Requested read-out: pKd. Entry: GGACGGAUUUAAUCGCCGUAGAAAAGCAUGUCAAAGCCGGAACCGUCC (structured_RNA, 2'-F on all C and U; A and G ribo) [MinE07-Biotin]
A) 8.43
